- experiment description: Solubility of flibanserin in aqueous media
- Type: physicochemical
- protocol conditions: aqueous buffer; in phosphate buffer at pH 5.0
assay endpoint: solubility (µg/mL)

INSERT INTO assay_data (compound, result_value) VALUES
  ('O=c1[nH]c2ccccc2n1CCN1CCN(c2cccc(C(F)(F)F)c2)CC1 [Flibanserin]', 10);
